Tested on: formation of free radicals from biological membrane undergoing oxidative stress (MDA formation)
Assay: Formation of malonodialdehyde (MDA) test: antagonism of free radical formation from biological membrane undergoing oxidative stress
Type: biochemical
Settings: in vitro; IC50 = dose of compound necessary to reduce by 50% the harmful effect
Rule for this label: 1 (yes) means IC50 is less than 100 µM; 0 (no) means IC50 is at least 100 µM.

Ask: Hi there! Is IC50 for Cc1ccc2c(CC(=O)C(=O)O)c[nH]c2c1 [6-Me-IPA, 6-methyl-indole-3-yl-pyruvic] below 100 µM, do you know?
Reply: 1 (yes)

Ask: Repeat for the following compound: O=C(O)C(=O)Cc1c[nH]c2c(Cl)cccc12 [7-Cl-IPA]
Reply: 0 (no)

Ask: Queued: NC(Cc1c[nH]c2cc(Cl)ccc12)C(=O)O (racemic) [6-Cl-TRP, 6-chloro-DL-tryptophan]
Reply: 0 (no)

Ask: Another compound to check: O=C(O)C(=O)Cc1c[nH]c2cc(O)ccc12 [6-OH-IPA]
Reply: 0 (no)

Ask: Further, for O=C(O)C(=O)Cc1c[nH]c2cc(Br)ccc12 [6-Br-IPA] ?
Reply: 1 (yes)
